# System: HOP-62 complex spheroids with HUVEC/MSC, viability
# protocol notes: Anticancer human tumor HOP-62 cell line growth inhibition [RAS];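 further: spheroids exposed to agents for seven days before readout; 100% = DMSO vehicle control viability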
# condition set: second compound 0.000949 µM; first compound 10 µM; active compounds read low
This listing pairs compounds with measured viability, T/C.
Expressed in %, but write only the number.

In the examples that follow, each entry is paired with its recorded viability, T/C.
CC(Nc1ccc2c(c1)OCCn1cc(N3C(=O)OCC3C(F)F)nc1-2)C(N)=O (stereo not drawn) + CCn1c(-c2cc(N3CCN(C)CC3)cnc2C(C)OC)c2c3cc(ccc31)-c1csc(n1)CC(NC(=O)C1CC1C)C(=O)N1CCCC(N1)C(=O)OCC(C)(C)C2	25.9
CC(C)NCC(C(=O)N1CCN(c2ncnc3c2C(C)CC3O)CC1)c1ccc(Cl)cc1 (stereo not drawn) + CCn1c(-c2cc(N3CCN(C)CC3)cnc2C(C)OC)c2c3cc(ccc31)-c1csc(n1)CC(NC(=O)C1CC1C)C(=O)N1CCCC(N1)C(=O)OCC(C)(C)C2	19.1
CC1(O)CCCC1n1c(=O)c(C(F)F)cc2cnc(NC3CCN(S(C)(=O)=O)CC3)nc21 (stereo not drawn) + CCn1c(-c2cc(N3CCN(C)CC3)cnc2C(C)OC)c2c3cc(ccc31)-c1csc(n1)CC(NC(=O)C1CC1C)C(=O)N1CCCC(N1)C(=O)OCC(C)(C)C2	2.49
C[C@@H](NC(=O)c1ncnc(N)c1Cl)c1ncc(C(=O)Nc2cc(C(F)(F)F)c(Cl)cn2)s1 + CCn1c(-c2cc(N3CCN(C)CC3)cnc2C(C)OC)c2c3cc(ccc31)-c1csc(n1)CC(NC(=O)C1CC1C)C(=O)N1CCCC(N1)C(=O)OCC(C)(C)C2	74.6
CC(Nc1ccc2c(c1)OCCn1cc(N3C(=O)OCC3C(F)F)nc1-2)C(N)=O (stereo not drawn) + CCn1c(-c2cccnc2C(C)OC)c2c3cc(ccc31)N1CCOC(CC(NC(=O)C(C(C)C)N(C)C(=O)C3(F)CCN(C(=O)C#CC(C)(C)N(C)C)CC3)C(=O)N3CCCC(N3)C(=O)OCC(C)(C)C2)C1	23.9

Would you kindly share the measured viability, T/C for Cc1nc(N2CCC3(CC2)COC(C)C3N)c(CO)nc1Sc1ccnc(N)c1Cl (stereo not drawn) + CCn1c(-c2cc(N3CCN(C)CC3)cnc2C(C)OC)c2c3cc(ccc31)-c1csc(n1)CC(NC(=O)C1CC1C)C(=O)N1CCCC(N1)C(=O)OCC(C)(C)C2 ?
21.8

Would you kindly share the measured viability, T/C for CC(C)NCC(C(=O)N1CCN(c2ncnc3c2C(C)CC3O)CC1)c1ccc(Cl)cc1 (stereo not drawn) + CCn1c(-c2cccnc2C(C)OC)c2c3cc(ccc31)N1CCOC(CC(NC(=O)C(C(C)C)N(C)C(=O)C3(F)CCN(C(=O)C#CC(C)(C)N(C)C)CC3)C(=O)N3CCCC(N3)C(=O)OCC(C)(C)C2)C1 ?
20.3

Would you kindly share the measured viability, T/C for NC1c2ccccc2OC12CCN(c1cnc3c(N4CCCc5ncccc54)n[nH]c3n1)CC2 (stereo not drawn) + CCn1c(-c2cccnc2C(C)OC)c2c3cc(ccc31)N1CCOC(CC(NC(=O)C(C(C)C)N(C)C(=O)C3(F)CCN(C(=O)C#CC(C)(C)N(C)C)CC3)C(=O)N3CCCC(N3)C(=O)OCC(C)(C)C2)C1 ?
19.4

Data credit: PubChem BioAssay AID2060892
